# assayProtocol: NCI Yeast Anticancer Drug Screen. Data for the sgs1 mgt1 strain (AID 161);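 note: 0% = growth of cultures given vehicle only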
# particulars: S. cerevisiae sgs1 mgt1 strain, at 50.0 µM, stronger effect = higher value
# Experimental: Growth inhibition of yeast strains with defined genetic alterations is measured as a screen for potential anti-cancer activity. Selected strains with alterations in DNA damage repair or cell cycle control were exposed to compounds and growth inhibition was measured relative to vehicle treated controls. The strain used in this assay is sgs1 mgt1
Compounds without any hit were thinned out: in the full panel of roughly 79,000, 15% have a hit.
In this section we review reported growth inhibition values for a set of compounds.
Number in %, nothing else.

The cases that follow already have their growth inhibition on record.
{"columns": ["compound", "valueUnit", "growth inhibition"],
 "data": [
  ["ClCCOCOc1ccc2ccccc2c1", "%", 43.6],
  ["CCOC(=O)C(Cc1ccccc1Cl)(Cc1ccccc1Cl)c1ccccc1", "%", -10.5],
  ["CN1C(=O)N(c2ccccc2)C2(CCN(CC3COc4ccccc4O3)CC2)C1=O (configuration not stated)", "%", 21.6],
  ["CC(=O)c1cc([N+](=O)[O-])c(O)cc1O", "%", 18.1]
]}

input: Answer with reported growth inhibition of COC(=O)C1(Cc2ccccc2)Cc2ccccc2C1
output: 36.4

input: Answer with reported growth inhibition of O=C1CSC=C(c2ccccc2)O1
output: -4.7

input: Answer with reported growth inhibition of CCC(CC)C(=O)O
output: -34.4

###

# assayProtocol: NCI Yeast Anticancer Drug Screen. Data for the sgs1 mgt1 strain (AID 161);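 note: 0% = growth of cultures given vehicle only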
# particulars: S. cerevisiae sgs1 mgt1 strain, at 50.0 µM
About 79,000 compounds went through this panel and 15% of them were active in at least one assay; those are over-represented in the sample as a whole. Active and inactive are the calls of the source. No stated cut-off is given here; in the data, active means growth inhibition above about 70%; inactive means the rest.
Please answer using one outcome listed in 1.0 for active, 0.0 for inactive

Example cases with answers are listed next.
{"columns": ["molecule", "className"],
 "data": [
  ["Nc1nc(N)nc(SCCO)n1", 0.0],
  ["C[N+]([O-])(Cc1ccccc1)c1ccccc1 (stereo not given)", 0.0],
  ["NS(=O)(=O)c1cccc(C(F)(F)F)c1", 0.0],
  ["C1CCCCCc2c(-c3n[nH]c4c3CCCCCCCCCC4)n[nH]c2CCCC1", 0.0],
  ["Cn1c2ccccc2c(=S)c2c(O)cc3c(c21)C=CC(C)(C)O3", 0.0]
]}

input: Dear all, I need the recorded test outcome for COc1cccc(C=Nc2ccc(N(C)C)cc2)c1O.COc1cccc(C=Nc2ccc(N(C)C)cc2)c1O.[Co] , thank you.
output: 0.0

input: Dear all, I need the recorded test outcome for NC(=O)c1ccccc1Sc1ccccc1C(N)=O , thank you.
output: 0.0

input: Dear all, I need the recorded test outcome for Cc1ccc(S(=O)(=O)/C=C/c2ccccc2)cc1 , thank you.
output: 0.0

input: Dear all, I need the recorded test outcome for O=C(/C=C/c1ccc2c(c1)OCO2)NCc1ccco1 , thank you.
output: 0.0

input: Dear all, I need the recorded test outcome for Clc1ccc(C2=CSC3=NCCN23)cc1 , thank you.
output: 0.0

###

# assayProtocol: NCI Yeast Anticancer Drug Screen. Data for the mlh1 rad18 strain (AID 175)
# particulars: S. cerevisiae mlh1 rad18 strain growth inhibition; at 50.0 µM
The panel holds about 79,000 compounds, 15% with a hit somewhere; the sample as a whole holds those more often. Activity calls are given as the source filed them. Rule as the data show it: active = growth inhibition above about 70%; inactive = the rest.
Please answer using one outcome listed in active, inactive

{"columns": ["compound", "className"],
 "data": [
  ["CC(=O)C1CCCC(=O)/C=C/C(=O)O1 (stereo unspecified)", "inactive"],
  ["O=[N+]([O-])c1ccc2[nH]c(=S)n(/C=C(/c3ccccc3)S(=O)Cc3ccccc3)c2c1 (stereo unspecified)", "inactive"],
  ["Cc1cc(OCCOc2ccc(N)cc2)ccc1N1C(N)=NC(N)=NC1(C)C", "inactive"],
  ["COC1c2ccccc2C(C)(C)c2nc3ccccc3cc21 (stereo unspecified)", "inactive"],
  ["C=[N+](CNC(=O)CNC(=O)C(Cc1ccc([N+](=O)[O-])cc1)NC(=O)OC(C)(C)C)C(=O)CNC(=O)C(Cc1ccc([N+](=O)[O-])cc1)NC(=O)OC(C)(C)C (stereo unspecified)", "inactive"]
]}

input: Dear all, I need the recorded test outcome for CCCCOc1cc2c(cc1C(C)c1ccccc1)OCO2 (stereo unspecified) , thank you.
output: inactive

###

# assayProtocol: NCI Yeast Anticancer Drug Screen. Data for the cln2 rad14 strain (AID 165);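 note: 0% = growth equal to vehicle treated cultures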
# particulars: S. cerevisiae cln2 rad14 strain, at 50.0 µM
This is part of a sample that, as a whole, favours compounds with a hit. Of some 79,000 tested, about 15% had one in any assay. Active and inactive are the calls of the source. Rule as the data show it: active = growth inhibition above about 70%; inactive = the rest.
Please answer using one outcome listed in label 1 (active), label 0 (inactive)

{"columns": ["compound", "className"],
 "data": [
  ["CCN(CC)Cc1cc(Nc2c3ccc([N+](=O)[O-])cc3nc3ccc(OC)cc23)ccc1O", "label 0"],
  ["O=C(NCc1ccccc1)C1C2C=CC(C2)C1C(=O)NCc1ccccc1 (configuration not stated)", "label 0"]
]}

input: Dear all, I need the recorded test outcome for CCCCCCCCCCCCCCCC(=O)Oc1ccc(C(=S)N2CCOCC2)cc1 , thank you.
output: label 0

input: Dear all, I need the recorded test outcome for Cc1ccc(N2C(=O)/C(=C3\Sc4c(nc(C)n(C)c4=O)N3c3ccccc3)SC2=S)cc1 , thank you.
output: label 0

input: Dear all, I need the recorded test outcome for COc1cc(C2c3cc4c(cc3OC(NNC(N)=S)C2C)OCO4)cc(OC)c1OC (configuration not stated) , thank you.
output: label 0

input: Dear all, I need the recorded test outcome for Cc1cc2cccc(C)c2[nH]1 , thank you.
output: label 0

input: Dear all, I need the recorded test outcome for CN(C)C1C=CS(=O)(=O)C1 (configuration not stated) , thank you.
output: label 0

input: Dear all, I need the recorded test outcome for Cn1c2ccccc2c(=O)c2c(O)cc3c(c21)CC(C1(C)CO1)O3 (configuration not stated) , thank you.
output: label 1

input: Dear all, I need the recorded test outcome for CCN(CC)C(=S)N1CCCCC1 , thank you.
output: label 0

input: Dear all, I need the recorded test outcome for CC1CCC(C(C)(C)NO)C(=O)C1 (configuration not stated) , thank you.
output: label 0

input: Dear all, I need the recorded test outcome for O=C(Nc1cc(C(F)(F)F)ccc1Cl)N(Cc1ccccc1)c1ccccc1 , thank you.
output: label 0

input: Dear all, I need the recorded test outcome for Nc1ccc2nc(-c3ccccc3)[nH]c2c1 , thank you.
output: label 0

###

# assayProtocol: NCI Yeast Anticancer Drug Screen. Data for the mlh1 rad18 strain (AID 175)
# particulars: S. cerevisiae mlh1 rad18 strain growth inhibition; at 50.0 µM
About 79,000 compounds went through this panel and 15% of them were active in at least one assay; those are over-represented in the sample as a whole. Calls of active or inactive are those of the source. Rule as the data show it: active = growth inhibition above about 70%; inactive = the rest.
Please answer using one outcome listed in active, inactive

input: Dear all, I need the recorded test outcome for O=C(O)CC12C3C4C5C3C1C5C42 (configuration not stated) , thank you.
output: inactive

###

# assayProtocol: NCI Yeast Anticancer Drug Screen. Data for the cln2 rad14 strain (AID 165);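 note: 0% = growth equal to vehicle treated cultures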
# particulars: S. cerevisiae cln2 rad14 strain, at 50.0 µM, stronger effect = higher value
This is part of a sample that, as a whole, favours compounds with a hit. Of some 79,000 tested, about 15% had one in any assay.
In this section we review reported growth inhibition values for a set of compounds.
Number in %, nothing else.

The cases that follow already have their growth inhibition on record.
{"columns": ["compound", "growth inhibition, %"],
 "data": [
  ["Cc1ccc2c(c1)nc1n2C(c2c(F)cccc2F)SC1 (stereo unspecified)", 13.4],
  ["O=C(c1ccc(C2CCCCC2)cc1)C(C(c1ccccc1)N1CCOCC1)N1CCOCC1 (stereo unspecified)", -10.6],
  ["CCOC(=O)/C(C#N)=C\\C1(C)CCC(C)=CO1 (stereo unspecified)", -31.6],
  ["O=C(C[n+]1ccccc1)c1cc2c(c3ccccc13)CCCC2", 20.8],
  ["CCNC(=O)c1ccccc1C(=O)c1ccccc1", 12.8]
]}

Let us move to another entry and its growth inhibition.
input: Answer with reported growth inhibition of C=CCCNC(=S)S
output: -2.9

###

# assayProtocol: NCI Yeast Anticancer Drug Screen. Data for the mec2-1 strain (AID 157)
# particulars: S. cerevisiae mec2-1 strain, at 50.0 µM, stronger effect = higher value
Compounds without any hit were thinned out: in the full panel of roughly 79,000, 15% have a hit.
In this section we review reported growth inhibition values for a set of molecules.
Number in %, nothing else.

{"columns": ["molecule", "growth inhibition, %"],
 "data": [
  ["O=Nc1c(O)c(S(=O)(=O)O)cc2cc(S(=O)(=O)O)ccc12", -1.8],
  ["CSc1nnn(C(C)(C)C)n1", 6],
  ["CC(C)CCCC(C)C1CCC2C3CCC4CC(=O)CCCC4(C)C3CCC12C (configuration not stated)", 3.35],
  ["O=c1[nH]c(Br)nc2c(Br)c[nH]c12", -0.15],
  ["CC1CC(C)(C)C(C[NH-])C1[NH-].[Cl][Pt+2][Cl] (configuration not stated)", 20.5],
  ["ON(CCc1ccncc1)Cc1ccccc1", -31.1],
  ["NC(=O)C1=CCCC1", -0.1],
  ["CN(C)CC(c1ccccc1)C(O)(c1ccccc1)c1ccccc1 (configuration not stated)", -2.75],
  ["OCC(O)c1ccccn1 (configuration not stated)", -18.8],
  ["CCCCOc1ccc(Br)cc1", 5.4]
]}

input: Answer with reported growth inhibition of C[C@@H]1C(=O)OCC2=C3C[C@@H](CC[C@@]3(C)C=CC2=O)[C@H](C)C(=O)OCC2=C3C[C@H]1CC[C@@]3(C)C=CC2=O
output: -3.7

input: Answer with reported growth inhibition of COc1cc2c(cc1C1=NC(C)(C)CO1)OCO2
output: -18.7
